test system: ACA acylase; assay: Influences of inhibitors and activators on ACA acylase activity (standard conditions, coupled test with D-2-hydroxy-4-methylpentanoic acid dehydrogenase); assay type: biochemical, Brevibacterium spec.; conditions: bivalent metal ion, concentration 1 nM (so in the source); 0.1M tris/HCl buffer pH 8.0
experimental endpoint: Residual Activity (%)
Kindly provide the numeric value in % only, without the unit symbol.

Here is how some compounds turned out for Residual Activity.
smiles record	Residual Activity (%)
[Cl][Ni][Cl]	83
[Cl][Hg][Cl]	51

Give the measured Residual Activity for [Cl-].[Cl-].[Mg+2]
100

----------
Each record here notes measured Residual Activity.
system: ACA acylase; assay: Influences of inhibitors and activators on ACA acylase activity (standard conditions, coupled test with D-2-hydroxy-4-methylpentanoic acid dehydrogenase); type: biochemical, Brevibacterium spec.; settings: bivalent metal ion, concentration 10 nM (so in the source); 0.1M tris/HCl buffer pH 8.0
Kindly provide the numeric value in % only, without the unit symbol.

Here is how some compounds turned out for Residual Activity.
smiles record	experimental endpoint	recorded value
[Cl-].[Cl-].[Mg+2]	Residual Activity	100
[Ca+2].[Cl-].[Cl-]	Residual Activity	99
[Cl][Ni][Cl]	Residual Activity	53

Give the measured Residual Activity for [Cl][Cd][Cl]
29

Give the measured Residual Activity for [Cl][Hg][Cl]
0

Give the measured Residual Activity for [Cl-].[Cl-].[Zn+2]
34

Data origin, for the record: patent US4877734A
